The following compounds are listed with their measured half-life values.
assay: Compound was evaluated for its hydrolysis half life obtained from the relation Kobs was measured in a pH 7.4 phosphate buffer at 37 degree C (micro = 0.5 M ).; assay type: ADME; conditions: phosphate buffer

| test.smiles | observed.result |
| --- | --- |
| CC(=O)Nc1cccc(OC(=O)Nc2cc(Cl)ccc2O)c1 | 0.125 min |

Per the records, this compound ( O=C(Nc1cc(Cl)ccc1O)OCC(F)(F)F ) has half-life equal to 2.58 min

Per the records, this compound ( O=C(Nc1cc(Cl)ccc1O)OCC(Cl)(Cl)Cl ) has half-life equal to 276000 min

====

assay: Compound was evaluated for its hydrolysis half life obtained from the relation Kobs was measured in a pH 7.4 phosphate buffer at 37 degree C (micro = 0.5 M ).; assay type: ADME; settings: phosphate buffer
assay.endpoint: log10 of half-life (log10 of the value in min)
Answers are given as log10 of half-life in min.

| test.smiles | assay.endpoint | observed.result |
| --- | --- | --- |
| COC(=O)Nc1cc(Cl)ccc1O | log10 of half-life | 5.02 |
| CC(=O)Nc1ccc(OC(=O)Nc2cc(Cl)ccc2O)cc1 | log10 of half-life | -0.93 |
| O=C(Nc1cc(Cl)ccc1O)Oc1ccccc1 | log10 of half-life | -0.70 |

Per the records, this compound ( O=C(Nc1cc(Cl)ccc1O)OCC(Cl)Cl ) has log10 of half-life equal to 1.63

Per the records, this compound ( COc1ccc(OC(=O)Nc2cc(Cl)ccc2O)cc1 ) has log10 of half-life equal to -0.43

Per the records, this compound ( Cl.Nc1ccc(OC(=O)Nc2cc(Cl)ccc2O)cc1 ) has log10 of half-life equal to -0.42

Per the records, this compound ( O=C(Nc1cc(Cl)ccc1O)Oc1cccc(C(F)(F)F)c1 ) has log10 of half-life equal to -1.29

====

assay: its hydrolysis half life in phosphate buffer (pH 7.4); format: ADME
The following molecules are listed with their measured log10 half-life values.
Answers are given as log10 of half-life in h.

Sample answers from the record:
| molecule | log10 half-life |
| --- | --- |
| CC(=O)Nc1ccc(OC(=O)Nc2cc(C(=O)c3ccccc3)ccc2O)cc1 | -2.41 |
| COc1ccccc1OCC(O)CNC(=O)Oc1ccc(NC(C)=O)cc1 (stereo unspecified) | 0.79 |
| CC(=O)Nc1ccc(OC(=O)NCC(O)COc2cc(C)cc(C)c2)cc1 (stereo unspecified) | 0.84 |

Per the records, this molecule ( CC(=O)Nc1ccc(OC(=O)Nc2ccc(C(=O)c3ccccc3)cc2O)cc1 ) has log10 half-life equal to -2.79

Per the records, this molecule ( COc1ccccc1OCC(CNC(=O)Oc1ccc(NC(C)=O)cc1)OC (stereo unspecified) ) has log10 half-life equal to 0.92

Per the records, this molecule ( CC(=O)Nc1ccc(OC(=O)Nc2cc(Cl)ccc2O)cc1 ) has log10 half-life equal to -2.71

====

assay: Compound was evaluated for its rate constant (Kp) which are average values of Kobs measured in the pH range 10-11 at 25 degree C (micro = 0.5 M ).; type: ADME
Kp below 0.01 s⁻¹ gives not satisfied; Kp at or above it gives satisfied.

| test.smiles | group.label |
| --- | --- |
| CC#CCOC(=O)Nc1cc(Cl)ccc1O | not satisfied |
| COC(=O)Nc1cc(Cl)ccc1O | not satisfied |
| Cl.Nc1ccc(OC(=O)Nc2cc(Cl)ccc2O)cc1 | satisfied |
| CCOC(=O)Nc1cc(Cl)ccc1O | not satisfied |
| CC(=O)Nc1ccc(OC(=O)Nc2cc(Cl)ccc2O)cc1 | satisfied |

Exercise: Does O=C(Nc1cc(Cl)ccc1O)Oc1ccccc1 have a reported Kp of at least 0.01 s⁻¹?
Solution: satisfied

Exercise: Does O=C(Nc1cc(Cl)ccc1O)Oc1cccc(C(F)(F)F)c1 have a reported Kp of at least 0.01 s⁻¹?
Solution: satisfied

Exercise: Does O=C(Nc1cc(Cl)ccc1O)Oc1cccc(Cl)c1 have a reported Kp of at least 0.01 s⁻¹?
Solution: satisfied

Exercise: Does O=C(Nc1cc(Cl)ccc1O)OCC(Cl)(Cl)Cl have a reported Kp of at least 0.01 s⁻¹?
Solution: satisfied

Exercise: Does O=C(Nc1cc(Cl)ccc1O)OCCCl have a reported Kp of at least 0.01 s⁻¹?
Solution: not satisfied

Exercise: Does CC(C)(C)OC(=O)Nc1ccc(OC(=O)Nc2cc(Cl)ccc2O)cc1 have a reported Kp of at least 0.01 s⁻¹?
Solution: satisfied

Exercise: Does O=C(Nc1cc(Cl)ccc1O)OCC(Cl)Cl have a reported Kp of at least 0.01 s⁻¹?
Solution: not satisfied

Exercise: Does CC(=O)Nc1ccc(OC(=O)Nc2cc(C(=O)c3ccccc3)ccc2O)cc1 have a reported Kp of at least 0.01 s⁻¹?
Solution: satisfied
